# reported logD; entries follow
# test.method.notes: Partition coefficient, log D of the compound at pH 7.4 by shake flask method
# reported.conditions: octanol/water
property.name: logD

# molecule, property.name, value.measured
records = [
    ("CCCC(C)(C)C[C@H](c1ccc(C(=O)O)c(Oc2cccc(Cl)c2)c1)N1CCC[C@H](n2cc(C)c(=O)[nH]c2=O)C1", "logD", 2),
    ("CCC(C)(CC)C[C@H](c1ccc(C(=O)O)c(Oc2cccc(Br)c2)c1)N1CCC[C@H](n2cc(C)c(=O)[nH]c2=O)C1", "logD", 2),
    ("Cc1cn([C@H]2CCCN([C@@H](CC(C)C)c3ccc(C(=O)O)c(Oc4cccc(Cl)c4)c3)C2)c(=O)[nH]c1=O", "logD", 0.9),
    ("Cc1cn([C@H]2CCCN(Cc3ccc(C(=O)O)c(Oc4cccc(C(F)(F)F)c4)c3)C2)c(=O)[nH]c1=O", "logD", -0.38),
    ("Cc1cn([C@H]2CCCN([C@@H](CC(C)(C)C)c3ccc(C(=O)O)c(Oc4cccc(Br)c4)c3)C2)c(=O)[nH]c1=O", "logD", 1.2),
    ("Cc1cn([C@H]2CCCN([C@H](CC(C)C)c3ccc(C(=O)O)c(Oc4cccc(Cl)c4)c3)C2)c(=O)[nH]c1=O", "logD", 0.9),
    ("Cc1cn([C@H]2CCCN([C@H](CC3CCOCC3)c3ccc(C(=O)O)c(Oc4cccc(Cl)c4)c3)C2)c(=O)[nH]c1=O", "logD", -0.25),
    ("CCC(CC)C[C@H](c1ccc(C(=O)O)c(Oc2cccc(Cl)c2)c1)N1CCC[C@H](n2cc(C)c(=O)[nH]c2=O)C1", "logD", 1.7),
    ("Cc1cn([C@H]2CCCN([C@H](CC(C)(C)C)c3ccc(C(=O)O)c(Oc4cccc(Br)c4)c3)C2)c(=O)[nH]c1=O", "logD", 1.1),
    ("Cc1cn([C@H]2CCCN([C@H](CC34CC5CC(CC(C5)C3)C4)c3ccc(C(=O)O)c(Oc4cccc(Br)c4)c3)C2)c(=O)[nH]c1=O", "logD", 2.5),
    ("CCC(C)(C)C[C@H](c1ccc(C(=O)O)c(Oc2cccc(Cl)c2)c1)N1CCC[C@H](n2cc(C)c(=O)[nH]c2=O)C1", "logD", 1.4),
    ("CC[C@@H](c1ccc(C(=O)O)c(Oc2cccc(Cl)c2)c1)N1CCC[C@H](n2cc(C)c(=O)[nH]c2=O)C1", "logD", 0.2),
    ("Cc1cn([C@H]2CCCN(Cc3ccc(C(=O)O)c(Oc4cccc(Br)c4)c3)C2)c(=O)[nH]c1=O", "logD", -0.51),
    ("CC[C@H](c1ccc(C(=O)O)c(Oc2cccc(Cl)c2)c1)N1CCC[C@H](n2cc(C)c(=O)[nH]c2=O)C1 (racemic)", "logD", 0.2),
    ("CCCCC[C@H](c1ccc(C(=O)O)c(Oc2cccc(Br)c2)c1)N1CCC[C@H](n2cc(C)c(=O)[nH]c2=O)C1", "logD", 1.1),
]

* * *

# test.method.notes: Inhibition of Streptococcus pneumoniae thymidylate kinase assessed as effect on conversion of dTDP to dTMP by luciferin/luciferase reporter gene based assay

# structure.string, IC50 / nM
records = [
    ("Cc1cn([C@H]2CCCN(Cc3cccc(Oc4ccc(Cl)cc4)c3)C2)c(=O)[nH]c1=O", 400),
    ("CCC(C)(C)C[C@H](c1ccc(C(=O)O)c(Oc2cccc(Cl)c2)c1)N1CCC[C@H](n2cc(C)c(=O)[nH]c2=O)C1", 0.3),
    ("Cc1cn([C@H]2CCCN(Cc3cccc(Oc4cc(Cl)cc(Cl)c4)c3)C2)c(=O)[nH]c1=O", 400),
    ("Cc1cn([C@H]2CCCN(Cc3ccc(C(=O)O)c(Oc4cccc(C(F)(F)F)c4)c3)C2)c(=O)[nH]c1=O", 10),
    ("CCC[C@H](c1ccc(C(=O)O)c(Oc2cccc(Cl)c2)c1)N1CCC[C@H](n2cc(C)c(=O)[nH]c2=O)C1", 0.3),
    ("Cc1cn([C@H]2CCCN([C@@H](C)c3ccc(C(=O)O)c(Oc4cccc(Cl)c4)c3)C2)c(=O)[nH]c1=O", 1),
    ("Cc1cn([C@H]2CCCN([C@@H](CC(C)C)c3ccc(C(=O)O)c(Oc4cccc(Cl)c4)c3)C2)c(=O)[nH]c1=O", 0.6),
    ("Cc1cccc(Oc2cccc(CN3CCC[C@H](n4cc(C)c(=O)[nH]c4=O)C3)c2)c1", 300),
]
